- target-entity: Cytochrome P450 3A4 (Homo sapiens)
- Sequence (P08684 whole entry): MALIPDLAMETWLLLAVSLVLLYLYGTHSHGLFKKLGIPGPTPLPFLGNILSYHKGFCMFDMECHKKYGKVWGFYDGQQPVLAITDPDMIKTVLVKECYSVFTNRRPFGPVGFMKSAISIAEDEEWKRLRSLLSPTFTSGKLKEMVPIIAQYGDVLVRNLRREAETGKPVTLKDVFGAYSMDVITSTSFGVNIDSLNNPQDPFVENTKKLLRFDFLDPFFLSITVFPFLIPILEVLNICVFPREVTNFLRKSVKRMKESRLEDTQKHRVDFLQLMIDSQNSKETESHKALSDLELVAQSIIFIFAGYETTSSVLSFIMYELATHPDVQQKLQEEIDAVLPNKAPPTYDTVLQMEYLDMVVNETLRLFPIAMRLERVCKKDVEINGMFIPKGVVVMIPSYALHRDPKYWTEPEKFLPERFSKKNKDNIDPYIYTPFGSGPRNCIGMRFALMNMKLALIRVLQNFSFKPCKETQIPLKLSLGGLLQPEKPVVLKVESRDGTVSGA
pIC50: −log10 of the molar value.
measurement-name: pIC50

Which pIC50 is listed for `COC(=O)N[C@H](C(=O)N1CCC[C@H]1c1ncc(-c2ccc(-c3ccc(-c4cnc([C@@H]5CC6(CN5C(=O)[C@@H](NC(=O)OC)C(C)C)OCCO6)[nH]4)cc3)cc2)[nH]1)C(C)C` ?
< 4.48

---

Listed here are molecules together with their documented pEC50.
- Test system: Hepatitis C virus
- test-description: Antiviral activity against Hepatitis C virus genotype 1a in Huh-luc/neo-ET replicon cells after 48 hrs by replicon-based luciferase assay
- Type: functional, organism-based, Hepacivirus hominis
- test-settings: subtype 1a
Lab note — pEC50 values are minus log10 of concentrations in M.

molecule: COC(=O)N[C@@H](CC(C)C)C(=O)N1C(c2ncc(-c3ccc(-c4ccc(-c5cnc([C@@H]6CCCN6C(=O)[C@@H](NC(=O)OC)C(C)C)[nH]5)cc4)cc3)[nH]2)CCC12CCC(F)(F)CC2 (stereo not given in full)
target-entity: Hepatitis C virus
measurement-name: pEC50
recorded-result: 8.70

molecule: COC(=O)N[C@H](C(=O)N1CCC[C@H]1c1ncc(-c2ccc(-c3ccc(-c4cnc([C@@H]5CC6(CN5C(=O)[C@@H](NC(=O)OC)C(C)C)OCCCO6)[nH]4)cc3)cc2)[nH]1)C(C)C
target-entity: Hepatitis C virus
measurement-name: pEC50
recorded-result: 10.60

molecule: COC(=O)N[C@H](C(=O)N1CCC[C@H]1c1ncc(-c2ccc(-c3ccc(-c4cnc(C5CCC6(CCOCC6)N5C(=O)OCc5ccccc5)[nH]4)cc3)cc2)[nH]1)C(C)C (stereo not given in full)
target-entity: Hepatitis C virus
measurement-name: pEC50
recorded-result: 8.20

molecule: COC(=O)N[C@H](C(=O)N1CCC[C@H]1c1ncc(-c2ccc(-c3ccc(-c4cnc(C5CCC6(CCOCC6)N5C(=O)[C@@H](NC(=O)OC)C(C)C)[nH]4)cc3)cc2)[nH]1)C(C)C (stereo not given in full)
target-entity: Hepatitis C virus
measurement-name: pEC50
recorded-result: 8.80

molecule: COC(=O)N[C@H](C(=O)N1CCC[C@H]1c1ncc(-c2ccc(-c3ccc(-c4cnc([C@@H]5CC6(CN5C(=O)[C@@H](NC(=O)OC)C(C)C)OCCO6)[nH]4)cc3)cc2)[nH]1)C(C)C
target-entity: Hepatitis C virus
measurement-name: pEC50
recorded-result: 10.40

molecule: COC(=O)N[C@H](C(=O)N1CC2(CCS(=O)(=O)CC2)CC1c1ncc(-c2ccc(-c3ccc(-c4cnc([C@@H]5CCCN5C(=O)[C@@H](NC(=O)OC)C(C)C)[nH]4)cc3)cc2)[nH]1)C(C)C (mixture of isomers)
target-entity: Hepatitis C virus
measurement-name: pEC50
recorded-result: 9.40

molecule: COC(=O)N[C@H](C(=O)N1CC2(CCOCC2)C[C@H]1c1ncc(-c2ccc(-c3ccc(-c4cnc([C@@H]5CC6(CCOCC6)CN5C(=O)[C@@H](NC(=O)OC)C(C)C)[nH]4)cc3)cc2)[nH]1)C(C)C
target-entity: Hepatitis C virus
measurement-name: pEC50
recorded-result: 10.70

# next molecule below
Given the entry `COC(=O)N[C@H](C(=O)N1CCC[C@H]1c1ncc(-c2ccc(-c3ccc(-c4cnc([C@@H]5CC6(CN5C(=O)[C@@H](NC(=O)OC)C(C)C)OCC(C)(C)CO6)[nH]4)cc3)cc2)[nH]1)C(C)C` , report its measured pEC50.
9.10

---

- test-description: In vivo clearance in beagle dog relative to hepatic blood flow
- Format: ADME, organism-based, Canis lupus familiaris, Liver
- test-settings: read-out: CLH
measurement-name: clearance (mL/min/kg)
Dear colleague, please return just the value in mL/min/kg, with no unit written.

Returns the measured clearance for the input compound. Input: `COC(=O)N[C@H](C(=O)N1CCC[C@H]1c1ncc(-c2ccc(-c3ccc(-c4cnc([C@@H]5CC6(CN5C(=O)[C@@H](NC(=O)OC)C(C)C)OCCO6)[nH]4)cc3)cc2)[nH]1)C(C)C`
8

---

- test-description: In vivo clearance in CD rat relative to hepatic blood flow
- Type: ADME, organism-based, Liver
- test-settings: read-out: CLH
Recorded clearance values for a group of compounds are listed next.
Respond with the bare value in mL/min/kg.

molecule-smiles: COC(=O)N[C@H](C(=O)N1CCC[C@H]1c1ncc(-c2ccc(-c3ccc(-c4cnc([C@@H]5CC6(CN5C(=O)[C@@H](NC(=O)OC)C(C)C)OCCO6)[nH]4)cc3)cc2)[nH]1)C(C)C
recorded-result: 60

API: the following record is the query input.
Could you share which clearance value was measured for `COC(=O)N[C@H](C(=O)N1CC2(C[C@H]1c1ncc(-c3ccc(-c4ccc(-c5cnc([C@@H]6CC7(CN6C(=O)[C@@H](NC(=O)OC)C(C)C)OCCO7)[nH]5)cc4)cc3)[nH]1)OCCO2)C(C)C` ?
58

---

- System: Hepatitis C virus
- test-description: Antiviral activity against Hepatitis C virus genotype 1a in Huh-luc/neo-ET replicon cells after 48 hrs by replicon-based luciferase assay
- Assay type: functional, organism-based, Hepacivirus hominis
- test-settings: subtype 1a
Below, each of the compounds is paired with its reported EC50 value.

compound: COC(=O)N[C@H](C(=O)N1CC2(CCN(C(C)=O)CC2)CC1c1ncc(-c2ccc(-c3ccc(-c4cnc([C@@H]5CCCN5C(=O)[C@@H](NC(=O)OC)C(C)C)[nH]4)cc3)cc2)[nH]1)C(C)C (mixture of isomers)
target-entity: Hepatitis C virus
EC50: 10 nM

Tell me the measured EC50 of COC(=O)N[C@H](C(=O)N1CCC[C@H]1c1ncc(-c2ccc(-c3ccc(-c4cnc([C@@H]5CC6(CN5C(=O)[C@@H](NC(=O)OC)C(C)C)O[C@@H](C)C[C@H](C)O6)[nH]4)cc3)cc2)[nH]1)C(C)C (stereo partly drawn) , please.
2 nM

One more compound: `CN(C)[C@@H](C(=O)N1CCC[C@H]1c1ncc(-c2ccc(-c3ccc(-c4cnc([C@@H]5COC6(CCOCC6)N5C(=O)OCc5ccccc5)[nH]4)cc3)cc2)[nH]1)c1ccccc1`
1.58 nM

---

- test-description: Oral bioavailability in CD rat
- Format: ADME, organism-based
- test-settings: in vivo
measurement-name: bioavailability (%)
Unit % implied. Number only.

molecule-smiles: COC(=O)N[C@H](C(=O)N1CC2(C[C@H]1c1ncc(-c3ccc(-c4ccc(-c5cnc([C@@H]6CC7(CN6C(=O)[C@@H](NC(=O)OC)C(C)C)OCCO7)[nH]5)cc4)cc3)[nH]1)OCCO2)C(C)C
recorded-result: 9

# input for lookup
Entry `COC(=O)N[C@H](C(=O)N1CCC[C@H]1c1ncc(-c2ccc(-c3ccc(-c4cnc([C@@H]5CC6(CN5C(=O)[C@@H](NC(=O)OC)C(C)C)OCCO6)[nH]4)cc3)cc2)[nH]1)C(C)C` : reported bioavailability = ?
13

---

- target-entity: Cytochrome P450 2C9 (Homo sapiens, UniProt P11712)
- Sequence (P11712 whole entry): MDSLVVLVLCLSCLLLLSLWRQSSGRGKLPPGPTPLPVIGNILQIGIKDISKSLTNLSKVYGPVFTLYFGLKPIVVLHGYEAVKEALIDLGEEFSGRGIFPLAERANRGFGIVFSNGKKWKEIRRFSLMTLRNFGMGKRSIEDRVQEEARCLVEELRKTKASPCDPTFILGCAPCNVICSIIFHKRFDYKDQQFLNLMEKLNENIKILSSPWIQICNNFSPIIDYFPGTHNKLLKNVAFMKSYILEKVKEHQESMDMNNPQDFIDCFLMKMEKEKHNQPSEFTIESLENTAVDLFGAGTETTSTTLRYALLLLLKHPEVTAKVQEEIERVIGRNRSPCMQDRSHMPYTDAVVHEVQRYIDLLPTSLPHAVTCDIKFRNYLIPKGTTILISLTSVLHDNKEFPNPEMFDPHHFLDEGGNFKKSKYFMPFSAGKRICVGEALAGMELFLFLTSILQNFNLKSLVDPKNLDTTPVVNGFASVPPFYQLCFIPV
pIC50: −log10 of the molar value.
measurement-name: pIC50

Short answer please: pIC50, Cytochrome P450 2C9 (Homo sapiens, UniProt P11712), entry `COC(=O)N[C@H](C(=O)N1CCC[C@H]1c1ncc(-c2ccc(-c3ccc(-c4cnc([C@@H]5CC6(CN5C(=O)[C@@H](NC(=O)OC)C(C)C)OCCO6)[nH]4)cc3)cc2)[nH]1)C(C)C`
< 4.48

---

- System: Hepatitis C virus
- test-description: Antiviral activity against Hepatitis C virus genotype 1a in Huh-luc/neo-ET replicon cells after 48 hrs by replicon-based luciferase assay
- Assay type: functional, organism-based, Hepacivirus hominis
- test-settings: subtype 1a
In plain terms, low EC50, meaning strictly below 0.05 nM, gives Y, and everything else gives N.

These solved cases illustrate the format of a correct answer.
molecule: COC(=O)N[C@H](C(=O)N1CCC[C@H]1c1ncc(-c2ccc(-c3ccc(-c4cnc([C@@H]5CC6(CCC(F)(F)CC6)CN5C(=O)[C@@H](NC(=O)OC)C(C)C)[nH]4)cc3)cc2)[nH]1)C(C)C
answer-label: Y
--
molecule: COC(=O)N[C@H](C(=O)N1CC2(CC1c1ncc(-c3ccc(-c4ccc(-c5cnc([C@@H]6CCCN6C(=O)[C@@H](NC(=O)OC)C(C)C)[nH]5)cc4)cc3)[nH]1)CN(C(=O)OC)C2)C(C)C (mixture of isomers)
answer-label: N
--
molecule: COC(=O)N[C@H](C(=O)N1CCC[C@H]1c1ncc(-c2ccc(-c3ccc(-c4cnc(C5CCC6(CCC(F)(F)CC6)N5C(=O)[C@@H](NC(=O)OC)C(C)C)[nH]4)cc3)cc2)[nH]1)C(C)C (stereo not given in full)
answer-label: N

Next:
Lab log: compare recorded EC50 with 0.05 nM; is it strictly lower for `COC(=O)N[C@H](C(=O)N1CCC[C@H]1c1ncc(-c2ccc(-c3ccc(-c4cnc([C@@H]5CC6(CN5C(=O)[C@@H](NC(=O)OC)C(C)C)SCCS6)[nH]4)cc3)cc2)[nH]1)C(C)C` ?
N

The measured values listed here are drawn from ChEMBL document CHEMBL3120061.
